system: Pseudomonas aeruginosa ATCC 27853; format: cell-based; conditions: ATCC 27853
Where a SMILES comes first, the peptide text is derived from it. Bridges are numbered along the chain shown (N, C = ends). [ ]: non-standard residue; d: D form. The star is where a group is joined. dPhe(3-Cl) = N[C@H](Cc1cccc(Cl)c1)C(=O)O; dPhe(2-Cl) = N[C@H](Cc1ccccc1Cl)C(=O)O; Heptanoyl(6-Me) = CC(C)CCCCC(=O)*; Octanoyl(7-Me) = CC(C)CCCCCC(=O)*; X2 = CC[C@H](C)CCCCC(=O)*; Octanoyl = CCCCCCCC(=O)*; Dab = NCC[C@H](N)C(=O)O; X9 = CCCCCCC(=O)CC(=O)*
MIC P. aeruginosa ATCC 27853 values, listed per item
Could you give me the number in µg/mL? Just the number is fine.

Example entries begin here.
MOLECULE	EXPERIMENTAL_TARGET	MIC P. aeruginosa ATCC 27853 (µg/mL)
CC[C@H](C)CCCCC(=O)N[C@@H](CCN)C(=O)N[C@H](C(=O)N[C@@H](CCN)C(=O)N[C@H]1CCNC(=O)[C@H]([C@@H](C)O)NC(=O)[C@H](CCN)NC(=O)[C@H](CCN)NC(=O)[C@H](C(C)C)NC(=O)[C@@H](CC(C)C)NC(=O)[C@H](CCN)NC1=O)[C@@H](C)O [Compound 72] (X2-[Dab]T[Dab][Dab][Dab][dL]V[Dab][Dab]T; lactam 4-C)	Pseudomonas aeruginosa ATCC 27853	2
CCCCCCCC(=O)N[C@@H](CCN)C(=O)N[C@H](C(=O)N[C@@H](CCN)C(=O)N[C@H]1CCNC(=O)[C@H](CO)NC(=O)[C@H](CCN)NC(=O)[C@H](CCN)NC(=O)[C@H]([C@@H](C)O)NC(=O)[C@@H](CC(C)C)NC(=O)[C@H](CCN)NC1=O)[C@@H](C)O [Compound 109] (Octanoyl-[Dab]T[Dab][Dab][Dab][dL]T[Dab][Dab]S; lactam 4-C)	Pseudomonas aeruginosa ATCC 27853	1
CCCCCCC(=O)CC(=O)N[C@@H](CCN)C(=O)N[C@H](C(=O)N[C@@H](CCN)C(=O)N[C@H]1CCNC(=O)[C@H]([C@@H](C)O)NC(=O)[C@H](CCN)NC(=O)[C@H](CCN)NC(=O)[C@H](CC(C)C)NC(=O)[C@@H](Cc2ccccc2)NC(=O)[C@H](CCN)NC1=O)[C@@H](C)O [Compound 6] (X9-[Dab]T[Dab][Dab][Dab][dF]L[Dab][Dab]T; lactam 4-C)	Pseudomonas aeruginosa ATCC 27853	2
CCCCCCCC(=O)N[C@@H](CCN)C(=O)N[C@H](C(=O)N[C@@H](CCN)C(=O)N[C@H]1CCNC(=O)[C@H]([C@@H](C)O)NC(=O)[C@H](CCN)NC(=O)[C@H](CCN)NC(=O)[C@H](CC(C)C)NC(=O)[C@@H](Cc2ccccc2)NC(=O)[C@H](CCN)NC1=O)[C@@H](C)O [Compound 44] (Octanoyl-[Dab]T[Dab][Dab][Dab][dF]L[Dab][Dab]T; lactam 4-C)	Pseudomonas aeruginosa ATCC 27853	1
CC[C@H](C)CCCCC(=O)N[C@@H](CCN)C(=O)N[C@H](C(=O)N[C@@H](CCN)C(=O)N[C@H]1CCNC(=O)[C@H]([C@@H](C)O)NC(=O)[C@H](CCN)NC(=O)[C@H](CCN)NC(=O)[C@H](CC(C)C)NC(=O)[C@@H](Cc2cccc(Cl)c2)NC(=O)[C@H](CCN)NC1=O)[C@@H](C)O [Compound 19] (X2-[Dab]T[Dab][Dab][Dab][dPhe(3-Cl)]L[Dab][Dab]T; lactam 4-C)	Pseudomonas aeruginosa ATCC 27853	2
CCCCCCCC(=O)N[C@@H](CCN)C(=O)N[C@H](C(=O)N[C@H](CO)C(=O)N[C@H]1CCNC(=O)[C@H]([C@@H](C)O)NC(=O)[C@H](CCN)NC(=O)[C@H](CCN)NC(=O)[C@H]([C@@H](C)O)NC(=O)[C@@H](Cc2ccccc2)NC(=O)[C@H](CCN)NC1=O)[C@@H](C)O [Compound 117] (Octanoyl-[Dab]T[dS][Dab][Dab][dF]T[Dab][Dab]T; lactam 4-C)	Pseudomonas aeruginosa ATCC 27853	2
CC(C)CCCCCC(=O)N[C@@H](CCN)C(=O)N[C@H](C(=O)N[C@@H](CCN)C(=O)N[C@H]1CCNC(=O)[C@H]([C@@H](C)O)NC(=O)[C@H](CCN)NC(=O)[C@H](CCN)NC(=O)[C@H](CC(C)C)NC(=O)[C@@H](CC(C)C)NC(=O)[C@H](CCN)NC1=O)[C@@H](C)O [Compound 86] ({Octanoyl(7-Me)}-[Dab]T[Dab][Dab][Dab][dL]L[Dab][Dab]T; lactam 4-C)	Pseudomonas aeruginosa ATCC 27853	2
CC(C)CCCCC(=O)N[C@@H](CCN)C(=O)N[C@H](C(=O)N[C@@H](CCN)C(=O)N[C@H]1CCNC(=O)[C@H]([C@@H](C)O)NC(=O)[C@H](CCN)NC(=O)[C@H](CCN)NC(=O)[C@H](CC(C)C)NC(=O)[C@@H](Cc2ccccc2)NC(=O)[C@H](CCN)NC1=O)[C@@H](C)O [Compound 43] ({Heptanoyl(6-Me)}-[Dab]T[Dab][Dab][Dab][dF]L[Dab][Dab]T; lactam 4-C)	Pseudomonas aeruginosa ATCC 27853	2

Now turn to the next molecule.
# input molecule: CC[C@H](C)CCCCC(=O)N[C@@H](CCN)C(=O)N[C@H](C(=O)N[C@@H](CCN)C(=O)N[C@H]1CCNC(=O)[C@H]([C@@H](C)O)NC(=O)[C@H](CCN)NC(=O)[C@H](CCN)NC(=O)[C@H](CC(C)C)NC(=O)[C@@H](Cc2ccccc2Cl)NC(=O)[C@H](CCN)NC1=O)[C@@H](C)O [Compound 18] (X2-[Dab]T[Dab][Dab][Dab][dPhe(2-Cl)]L[Dab][Dab]T; lactam 4-C) ; wanted: its MIC P. aeruginosa ATCC 27853 2
